- targetDesc: human ether-à-go-go-related gene (hERG) potassium channel (human);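 further: peak tail current of the secondary pulse compared with the same well before compound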
- Sequence (Q12809 whole entry, looked up): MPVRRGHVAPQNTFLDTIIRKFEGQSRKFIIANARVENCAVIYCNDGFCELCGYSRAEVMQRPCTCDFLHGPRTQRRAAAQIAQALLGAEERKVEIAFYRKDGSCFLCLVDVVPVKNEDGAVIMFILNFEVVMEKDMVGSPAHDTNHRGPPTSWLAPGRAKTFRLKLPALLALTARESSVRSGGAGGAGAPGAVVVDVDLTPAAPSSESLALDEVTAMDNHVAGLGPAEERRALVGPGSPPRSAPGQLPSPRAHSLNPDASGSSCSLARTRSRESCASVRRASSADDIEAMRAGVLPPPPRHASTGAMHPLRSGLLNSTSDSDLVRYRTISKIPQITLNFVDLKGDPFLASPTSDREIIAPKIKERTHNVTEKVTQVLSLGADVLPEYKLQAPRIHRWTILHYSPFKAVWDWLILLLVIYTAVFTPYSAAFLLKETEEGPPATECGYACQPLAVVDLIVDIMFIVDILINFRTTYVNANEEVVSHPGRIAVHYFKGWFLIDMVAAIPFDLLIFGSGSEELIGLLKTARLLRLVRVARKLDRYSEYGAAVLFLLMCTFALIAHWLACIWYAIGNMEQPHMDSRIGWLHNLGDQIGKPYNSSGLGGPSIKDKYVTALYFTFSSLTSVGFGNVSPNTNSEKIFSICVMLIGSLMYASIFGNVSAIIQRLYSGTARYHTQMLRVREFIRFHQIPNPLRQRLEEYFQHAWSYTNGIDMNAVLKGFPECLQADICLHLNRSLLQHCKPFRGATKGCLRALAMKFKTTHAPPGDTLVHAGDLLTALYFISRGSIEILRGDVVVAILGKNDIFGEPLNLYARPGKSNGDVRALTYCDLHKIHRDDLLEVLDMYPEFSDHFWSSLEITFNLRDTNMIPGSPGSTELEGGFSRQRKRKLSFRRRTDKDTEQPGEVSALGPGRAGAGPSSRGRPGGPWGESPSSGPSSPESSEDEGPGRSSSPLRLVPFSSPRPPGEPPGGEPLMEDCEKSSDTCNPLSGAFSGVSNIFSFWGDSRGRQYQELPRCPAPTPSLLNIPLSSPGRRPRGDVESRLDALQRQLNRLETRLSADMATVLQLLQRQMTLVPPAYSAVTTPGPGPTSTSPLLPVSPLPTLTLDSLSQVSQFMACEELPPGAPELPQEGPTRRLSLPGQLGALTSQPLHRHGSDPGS
- experimentalProtocol: primary screen, population patch clamp on CHO cells stably expressing hERG; higher = less effect of the substance
In all, about 310,000 compounds went through this assay and about 14,000 (4.5%) showed an effect of 50% or more. The effect is printed as a negative number. Only a selection was taken, and strong results are over-represented in it overall.
property: hERG current change (%, negative = inhibition) at 10uM (%)

# compound, readoutNumber
measured = [
    ("COc1ccc(NC(=O)C2CCCN(S(=O)(=O)c3ccc4[nH]c(=O)ccc4c3)C2)cc1 (stereo not shown)", 9.08),
    ("CCOC(=O)C1CCN(C(=O)c2ccc(OCC(=O)Nc3cccc(C(F)(F)F)c3)cc2)CC1", -55.5),
    ("CSc1ccc(CC(=O)N2CCC(n3nccc3NC(=O)C3CC3)CC2)cc1", -8.47),
    ("COc1ccc(CNC(=O)CC23CC4CC(CC(C4)C2)C3)cc1", 20.4),
    ("COc1cccc(-n2nc(C(=O)N3CCN(Cc4ccccc4)CC3)c3ccccc3c2=O)c1", -50.3),
    ("Cn1c(=O)c2c(nc(CN3CCN(c4ccccc4)CC3)n2CCN2CCOCC2)n(C)c1=O", -21.7),
    ("CCOCCn1c(CN2CCN(c3ccc(F)cc3)CC2)nc2c1c(=O)n(C)c(=O)n2C", -56.2),
    ("O=C(CSc1ccccn1)Nc1ccc(Cl)c([N+](=O)[O-])c1", -19.6),
    ("COc1ccc(C(=O)COC(=O)/C=C/c2ccccc2)cc1", 6.99),
    ("NC(=O)C1CCN(C(=O)c2ccc(OCC(=O)Nc3cccc(C(F)(F)F)c3)cc2)CC1", 1.96),
]
